molecules and their reported IC50
Tested on: RS4;11 leukaemia tumour line
TEST DESCRIPTION: In vitro cytotoxicity (MTT) on RS4;11
Type: cell-based
CONDITION DETAILS: Homo sapiens; RS4;11 cells, 48 hours exposure
Structures can show the parent of a compound that is named as a salt.
Give just the numeric value; nM need not be written.

Reference set, count: 3
>  <MOLECULE>
C[C@@H]1Cc2ccccc2CN1C(=O)c1cc2c(cc1-c1cc(C(=O)N(c3ccc(O)cc3)c3ccc(CCN4CCCC(F)(F)C4)cc3)c3ccccn13)OCO2 [Example 35, hydrochloride]

>  <MEASUREMENT LABEL>
IC50

>  <NUMBER>
62.2

$$$$
>  <MOLECULE>
COC1CN(CC[C@@H]2Cc3ccccc3CN2C(=O)c2cc3c(cc2-c2cc(C(=O)N(c4ccccc4)c4ccc(O)cc4)c4n2CCCC4)OCO3)C1

>  <MEASUREMENT LABEL>
IC50

>  <NUMBER>
8.56

$$$$
>  <MOLECULE>
C[C@@H]1Cc2ccccc2CN1C(=O)c1ccc(Cl)cc1-c1cc(C(=O)N(c2ccc(O)cc2)c2ccc3c(cnn3C)c2)c2n1CCNC2 [Example 12, hydrochloride]

>  <MEASUREMENT LABEL>
IC50

>  <NUMBER>
116

$$$$

[in] Can you look up IC50 on RS4;11 leukaemia tumour line for C[C@@H]1Cc2ccccc2CN1C(=O)c1cc2c(cc1-c1cc(C(=O)N(C)c3ccc(O)cc3)c3n1CCNC3)OCO2 ?
[out] 1520

[in] Entry C[C@@H]1Cc2ccccc2CN1C(=O)c1ccc(Cl)cc1-c1cc(C(=O)N(c2ccc(O)cc2)c2ccc3c(ccn3C)c2)c2n1CCNC2 [Example 3, hydrochloride] please
[out] 66.5

[in] Entry C[C@@H]1Cc2ccccc2CN1C(=O)c1cc2c(cc1-c1cc(C(=O)N(c3ccc(O)cc3)c3ccc4ncccc4c3)c3ccccn13)OCO2 [Example 31, hydrochloride] please
[out] 13.7

[in] Entry C[C@@H]1Cc2ccccc2CN1C(=O)c1cc2c(cc1-c1cc(C(=O)N(c3ccncc3)c3ccc(O)cc3)c3ccccn13)OCO2 [Example 21, hydrochloride] please
[out] 25.3

[in] Entry C[C@@H]1Cc2ccccc2CN1C(=O)c1cc2c(cc1-c1cc(C(=O)N(c3ccc(O)cc3)c3cnc4c(cnn4C)c3)c3ccccn13)OCO2 please
[out] 6.17

[in] Entry Cc1cc(N(C(=O)c2cc(-c3cc4c(cc3C(=O)N3Cc5ccccc5C[C@H]3C)OCO4)n3ccccc23)c2ccc(O)cc2)cc(C)n1 [Example 39, hydrochloride] please
[out] 26.3

[in] Entry C[C@@H]1Cc2ccccc2CN1C(=O)c1cc2c(cc1-c1cc(C(=O)N(c3ccc(O)cc3)c3ccn4ccnc4c3)c3ccccn13)OCO2 [Example 51, hydrochloride] please
[out] 68.8

[in] Entry Cc1cnn2cc(N(C(=O)c3cc(-c4cc5c(cc4C(=O)N4Cc6ccccc6C[C@H]4C)OCO5)n4ccccc34)c3ccc(O)cc3)cnc12 [Example 86, hydrochloride] please
[out] 20.1

[in] Entry C[C@@H]1Cc2ccccc2CN1C(=O)c1ccc(F)cc1-c1cc(C(=O)N(c2ccc(O)cc2)c2cnn(C)c2)c2n1CCCC2 please
[out] 61.3

* * *

Tested on: RS4;11 leukaemia tumour line
TEST DESCRIPTION: In vitro cytotoxicity (MTT) on RS4;11
Assay type: cell-based
CONDITION DETAILS: Homo sapiens; RS4;11 cells, 48 hours exposure
Structures can show the parent of a compound that is named as a salt.
MEASUREMENT LABEL: IC50
Show the value, then the unit it is measured in.

Reference set, count: 2
>  <COMPOUND>
NCC[C@@H]1Cc2ccccc2CN1C(=O)c1cc2c(cc1-c1cc(C(=O)N(c3ccccc3)c3ccc(O)cc3)c3n1CCCC3)OCO2 [Example 37, hydrochloride]

>  <ASSAYED TARGET>
RS4;11 leukaemia tumour line

>  <IC50>
24.7 nM

$$$$
>  <COMPOUND>
C[C@@H]1Cc2ccccc2CN1C(=O)c1cc2c(cc1-c1cc(C(=O)N(c3ccc(O)cc3)c3cnn(CCN4CCOCC4)c3)c3ccccn13)OCO2 [Example 45, hydrochloride]

>  <ASSAYED TARGET>
RS4;11 leukaemia tumour line

>  <IC50>
63.8 nM

$$$$

[in] Any idea what IC50 was measured for C[C@@H]1Cc2ccccc2CN1C(=O)c1cc2c(cc1-c1cc(C(=O)N(c3ccccc3)c3ccc(O)cc3)c3n1CCC(N)C3)OCO2 (stereo partly drawn) [Example 15, hydrochloride] ?
[out] 166 nM
